Ref: patent US8058475B2

# System Tested: human μ-opiate receptor (Homo sapiens, UniProt P35372)
# Sequence (P35372 whole entry): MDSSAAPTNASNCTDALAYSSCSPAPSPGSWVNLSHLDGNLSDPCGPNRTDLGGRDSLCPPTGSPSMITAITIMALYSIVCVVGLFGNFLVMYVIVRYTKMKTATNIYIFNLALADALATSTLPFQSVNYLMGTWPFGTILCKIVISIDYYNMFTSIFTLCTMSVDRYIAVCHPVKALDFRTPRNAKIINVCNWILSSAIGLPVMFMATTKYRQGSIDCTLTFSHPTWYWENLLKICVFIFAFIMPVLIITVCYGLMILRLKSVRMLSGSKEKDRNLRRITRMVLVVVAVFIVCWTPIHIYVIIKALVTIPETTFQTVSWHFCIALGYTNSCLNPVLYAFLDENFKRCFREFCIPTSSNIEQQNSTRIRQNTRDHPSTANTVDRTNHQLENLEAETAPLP
# Method Description: Affinity for the human μ-opiate receptor ([3H]-naloxone displacement, SPA, CHO-K1 membrane preparation)
# Format: binding
# Test Settings: 1 μM test substance; inhibition of specific [3H]-naloxone binding; read-out: μ-Opioid receptor, % inhibition [1 μM]
Structures can show the parent of a compound that is named as a salt.
Please use TRUE whenever inhibition at 1 µM is not below 70%, and FALSE whenever it is.

• CN(C)C(c1ccccc1)C1CCC(OCc2ccccc2)CC1 (stereo not shown) [compound 144, hydrochloride] = TRUE
• COc1cccc(CC2(O)CCC(C(c3ccc(Cl)cc3)N(C)C)CC2)c1 (stereo not shown) = TRUE
• CCCCCCC1(O)CCC(C(c2ccc(Cl)cc2)N(C)C)CC1 (stereo not shown) = FALSE
• CN(C)C(c1ccc(Cl)cc1)C1CCC(O)(c2ccccc2)CC1 (stereo not shown) = FALSE
• CCOC(=O)C=CC1CCC(C(c2cccc(F)c2)N(C)C)CC1 (stereo not shown) = TRUE
• CN(C)C(c1ccc(Cl)cc1)C1CCC(O)(Cc2ccc(F)cc2)CC1 (stereo not shown) = TRUE
• CN(C)C(c1ccccc1)C1CCC(NCCCCc2ccccc2)CC1 (stereo not shown) [compound 87, hydrochloride] = TRUE
• CN(C)C(c1ccccc1)C1CCC(NC(=O)NCc2ccccc2)CC1 (stereo not shown) = TRUE
• CN(C)C(c1ccc(F)cc1)C1CCC(O)CC1 (stereo not shown) = FALSE
• CN(C)C(c1cccs1)C1CCC(O)CC1 (stereo not shown) = FALSE
• CN(C)C(c1ccc(Cl)cc1)C1CCC(N)CC1 (stereo not shown) = FALSE
• CCOC(=O)CC1CCC(C(c2ccccc2)N(C)C)CC1 (stereo not shown) = TRUE
• CCOC(=O)CCC1CCC(C(c2ccc(F)cc2)N(C)C)CC1 (stereo not shown) = TRUE
• CCCCC1(O)CCC(C(c2ccc(Cl)cc2)N(C)C)CC1 (stereo not shown) = FALSE
• CN(C)C(c1ccccc1)C1CCC(NC(=O)Nc2ccccc2[N+](=O)[O-])CC1 (stereo not shown) [compound 76, hydrochloride] = FALSE
• CCCCCC1(O)CCC(C(c2cccc(F)c2)N(C)C)CC1 (stereo not shown) = FALSE
• CN(C)C(c1ccccc1)C1CCC(NC(=O)Nc2ccc(F)cc2F)CC1 (stereo not shown) [compound 74, hydrochloride] = TRUE
• CN(C)C(c1cccs1)C1CCC(CN)CC1 (stereo not shown) = TRUE
• CN(C)C(c1cccc(F)c1)C1CCC(CO)CC1 (stereo not shown) = FALSE
• CN(C)C(c1ccccc1)C1CCC(NC(=O)NC2CCCCC2)CC1 (stereo not shown) = TRUE
• CCOC(=O)CCC1CCC(C(c2ccccc2)N(C)C)CC1 (stereo not shown) = TRUE
• CN(C)C(c1cccc(F)c1)C1CCC(C=O)CC1 (stereo not shown) = FALSE
• CN(C)C(c1ccccc1)C1CCC(NCCc2c[nH]c3ccccc23)CC1 (stereo not shown) [compound 83, hydrochloride] = TRUE
• CN(C)C(c1ccccc1)C1CCC(NCc2ccccc2)CC1 (stereo not shown) [compound 86, hydrochloride] = TRUE
• CN(C)C(c1ccccc1)C1CCC(NC(=O)Nc2ccccc2)CC1.Cl (stereo not shown) [compound 78, hydrochloride] = TRUE
• CN(C)C(c1cccs1)C1CCC(CCN)CC1 (stereo not shown) = FALSE

====

# System Tested: human μ-opiate receptor (Homo sapiens, UniProt P35372)
# Method Description: Affinity for the human μ-opiate receptor ([3H]-naloxone displacement, SPA, CHO-K1 membrane preparation)
# Format: binding
# Test Settings: read-out: μ-Opioid receptor, Ki
Structures can show the parent of a compound that is named as a salt.
Ki values by entry
Quantity Measured: Ki (nM)

• CN(C)C(c1ccccc1)C1CCC(CCNC(=O)C(c2ccccc2)c2ccccc2)CC1 (centres unmarked) = 33
• CN(C)C(c1ccccc1)C1CCC(CCNC(=O)c2c(F)c(F)c(F)c(F)c2F)CC1 (centres unmarked) = 9.5
• COc1c(C(=O)NCCC2CCC(C(c3ccc(F)cc3)N(C)C)CC2)csc1Cl (centres unmarked) = 6.9
• CCC(CC)C(=O)NC1CCC(C(c2ccccc2)N(C)C)CC1 (centres unmarked) [compound 93, hydrochloride] = 94
• CN(C)C(c1ccccc1)C1CCC(CNC(=O)c2csc(-c3ccccc3)n2)CC1 (centres unmarked) = 33

====

# System Tested: human μ-opiate receptor (Homo sapiens, UniProt P35372)
# Method Description: Affinity for the human μ-opiate receptor ([3H]-naloxone displacement, SPA, CHO-K1 membrane preparation)
# Type: binding
# Test Settings: read-out: μ-Opioid receptor, Ki
Simple rule here: Ki less than 20 nM is rule met, otherwise rule not met.

- CN(C)C(c1ccccc1)C1CCC(NC(=O)c2cccc(C(F)(F)F)c2)CC1 (centres unmarked): rule not met
- CN(C)C(c1ccc(Cl)cc1)C1CCC(CCNC(=O)c2ccccc2Cl)CC1 (centres unmarked): rule not met
- CN(C)C(c1cccs1)C1CCC(CCNC(=O)c2csc3ccccc23)CC1 (centres unmarked): rule met
- CN(C)C(c1cccc(F)c1)C1CCC(CCNC(=O)c2ccccc2Cl)CC1 (centres unmarked): rule met
- CN(C)C(c1ccccc1)C1CCC(CCNC(=O)c2csc(-c3ccc4c(c3)CCO4)n2)CC1 (centres unmarked): rule not met

====

Ki values by entry
# System Tested: Noradrenaline (NA) reuptake (Rattus norvegicus)
# Construct: synaptosomes are freshly isolated from areas of rat brain; from tissue; host or cells: rat hypothalamus synaptosomes (P2 fraction)
# Sequence (Q63380 1-617): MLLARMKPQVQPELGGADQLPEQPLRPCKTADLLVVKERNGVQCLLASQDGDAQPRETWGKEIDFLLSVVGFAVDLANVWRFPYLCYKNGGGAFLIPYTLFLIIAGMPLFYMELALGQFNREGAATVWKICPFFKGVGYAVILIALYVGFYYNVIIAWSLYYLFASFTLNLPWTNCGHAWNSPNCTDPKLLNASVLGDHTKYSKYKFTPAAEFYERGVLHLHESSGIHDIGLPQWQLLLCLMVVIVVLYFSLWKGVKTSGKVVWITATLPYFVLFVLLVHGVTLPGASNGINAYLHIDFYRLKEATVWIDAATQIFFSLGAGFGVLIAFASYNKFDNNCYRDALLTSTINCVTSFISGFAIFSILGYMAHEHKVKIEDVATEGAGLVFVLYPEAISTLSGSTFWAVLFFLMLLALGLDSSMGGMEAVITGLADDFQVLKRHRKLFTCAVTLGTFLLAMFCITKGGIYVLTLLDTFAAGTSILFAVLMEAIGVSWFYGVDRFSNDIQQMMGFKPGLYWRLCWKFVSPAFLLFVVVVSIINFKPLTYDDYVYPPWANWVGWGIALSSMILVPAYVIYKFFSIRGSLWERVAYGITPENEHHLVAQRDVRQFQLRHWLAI
# Method Description: Noradrenaline (NA) reuptake inhibition in rat brain synaptosomes (hypothalamus, P2 fraction)
# Assay type: biochemical
Counter-ions that a name gives are not always drawn.
Quantity Measured: Ki (nM)

* CCCC(=O)N(Cc1ccccc1)C1CCC(C(c2ccccc2)N(C)C)CC1 (stereo not drawn) [compound 102, hydrochloride] | 130
* CN(C)C(c1ccccc1)C1CCC(NC(=O)NCc2ccccc2)CC1 (stereo not drawn) | 120
* CN(C)C(c1ccccc1)C1CCC(NC(=O)Nc2cccc3ccccc23)CC1 (stereo not drawn) | 180
* CN(C)C(c1ccccc1)C1CCC(NC(=O)Nc2ccc(F)cc2F)CC1 (stereo not drawn) [compound 74, hydrochloride] | 220
* CC(=O)N(c1ccccc1)C1CCC(C(c2ccccc2)N(C)C)CC1 (stereo not drawn) [compound 96, hydrochloride] | 800
* CN(C)C(c1ccccc1)C1CCC(NC(=O)Nc2cccc(C(F)(F)F)c2)CC1 (stereo not drawn) [compound 75, hydrochloride] | 550
* CN(C)C(c1ccccc1)C1CCC(NC(=O)NC2CCCCC2)CC1 (stereo not drawn) | 490
* CCOC(=O)CCC1CCC(C(c2ccc(F)cc2)N(C)C)CC1 (stereo not drawn) | 580
* CN(C)C(c1ccccc1)[C@H]1CC[C@H](CCc2ccccc2)CC1 (relative stereo) [compound 146, hydrochloride] | 600

====

# System Tested: human μ-opiate receptor (Homo sapiens, UniProt P35372)
# Method Description: Affinity for the human μ-opiate receptor ([3H]-naloxone displacement, SPA, CHO-K1 membrane preparation)
# Type: binding
# Test Settings: read-out: μ-Opioid receptor, Ki
Ki values by entry
Quantity Measured: Ki (nM)

- CCCc1ccc(C(=O)NCC2CCC(C(c3cccs3)N(C)C)CC2)cc1 (centres unmarked) [compound 356]: 120
- Cc1oc(-c2ccccc2)cc1C(=O)NCC1CCC(C(c2ccccc2)N(C)C)CC1 (centres unmarked) [compound 345]: 13
- CN(C)C(c1cccc(F)c1)C1CCC(NC(=O)c2ccc(Cl)c(Cl)c2)CC1 (centres unmarked) [compound 209]: 47
- CN(C)C(c1ccc(F)cc1)C1CCC(NC(=O)c2cc(F)c(F)cc2F)CC1 (centres unmarked) [compound 271]: 19
- CN(C)C(c1ccccc1)C1CCC(NC(=O)c2cc(F)cc(C(F)(F)F)c2)CC1 (centres unmarked) [compound 190]: 25
- CN(C)C(c1ccccc1)C1CCC(NC(=O)CC(C)(C)C)CC1 (single isomer, unassigned) [compound 246]: 39
- CN(C)C(c1cccs1)C1CCC(NC(=O)c2cccnc2Oc2ccc(Cl)cc2)CC1 (centres unmarked) [compound 257]: 81
- CN(C)C(c1cccs1)C1CCC(CC=O)CC1 (centres unmarked) [compound 67]: 200

====

# System Tested: human μ-opiate receptor (Homo sapiens, UniProt P35372)
# Method Description: Affinity for the human μ-opiate receptor ([3H]-naloxone displacement, SPA, CHO-K1 membrane preparation)
# Type: binding
# Test Settings: read-out: μ-Opioid receptor, % inhibition [1 μM]
Structures can show the parent of a compound that is named as a salt.
Quantity Measured: inhibition at 1 µM (%)

• Cc1cccc(C(=O)NC2CCC(C(CCc3ccccc3)N(C)C)CC2)c1 (stereo not shown) = 81
• Cc1ccc(Oc2ncccc2C(=O)NCC2CCC(C(c3cccs3)N(C)C)CC2)cc1 (single isomer, unassigned) [compound 389] = 81
• CN(C)C(c1ccccc1)C1CCC(N(Cc2ccccc2)C(=O)c2ccccc2)CC1 (stereo not shown) [compound 104, hydrochloride] = 92
• CN(C)C(c1ccccc1)C1CCC(CNC(=O)c2c(Cl)cc(Cl)cc2Cl)CC1 (stereo not shown) = 91
• CN(C)C(c1cccc(F)c1)C1CCC(NC(=O)c2ccc(F)c(Cl)c2)CC1 (stereo not shown) = 75
• CN(C)C(c1cccc(F)c1)C1CCC(CNC(=O)c2ccccc2Br)CC1 (stereo not shown) = 85
• CN(C)C(c1ccc(Cl)cc1)C1CCC(CNC(=O)c2ccccc2Br)CC1 (stereo not shown) = 79
• CN(C)C(c1ccccc1)C1CCC(N(Cc2ccccc2)C(=O)c2ccc(F)cc2)CC1 (stereo not shown) [compound 103, hydrochloride] = 99
• CN(C)C(c1ccc(Cl)cc1)C1CCC(CCNC(=O)c2ccccc2Br)CC1 (stereo not shown) = 81
• CN(C)C(c1cccc(F)c1)C1CCC(CNC(=O)c2ccc(F)c(C(F)(F)F)c2)CC1 (stereo not shown) = 89
• Cc1oc(-c2ccccc2)cc1C(=O)NC1CCC(C(c2cccc(F)c2)N(C)C)CC1 (stereo not shown) = 78
• CN(C)C(c1ccccc1)C1CCC(NC(=O)c2csc(-c3ccc4c(c3)CCO4)n2)CC1 (stereo not shown) = 70
• CSc1ncccc1C(=O)NC1CCC(C(c2cccs2)N(C)C)CC1 (stereo not shown) = 92
• CN(C)C(c1ccccc1)C1CCC(CNC(=O)C2(c3ccc(Cl)cc3)CCCC2)CC1 (stereo not shown) = 95
• CN(C)C(c1cccc(F)c1)C1CCC(CCNC(=O)c2ccc(Cl)cc2)CC1 (stereo not shown) = 81
• COc1c(C(=O)NCCC2CCC(C(c3ccccc3)N(C)C)CC2)csc1Cl (stereo not shown) = 100
• Cc1oc(-c2ccccc2)cc1C(=O)NCCC1CCC(C(c2ccccc2)N(C)C)CC1 (stereo not shown) = 82
• CCn1nc(C)c(Br)c1C(=O)NC1CCC(C(c2cccs2)N(C)C)CC1 (stereo not shown) = 78
• CCC(C(=O)NCC1CCC(C(c2ccccc2)N(C)C)CC1)c1ccccc1 (stereo not shown) = 95
